Entry source: patent US20230061736A1

- protocol.text: In vivo plasma levels in mice after oral gavage
- Design: species or system C57BL/6J mice
- measurement.context: male, C57BL/6J, plasma, 30 mg/kg; mouse, 30 mpk oral gavage, 8 h post-dose; read-out: Exposure Total (plasma)
- Experimental: Male C57BL/6J mice 10-12 weeks old were dosed with test article or vehicle [0.25% (w/v) methylcellulose, 5% (v/v) Polysorbate 80, and 0.02% (w/v) sodium lauryl sulfate in Hanks' Balanced Salt solution (all final concentrations)] by oral gavage at a volume of 10 mL/kg. Animals were euthanized with carbon dioxide 7-8 h post dose. […] Unbound exposure was calculated by multiplying the measured total exposure by the free fraction as assessed from plasma protein binding. […]
measurement.label: concentration at 8 h (nM)
Answer in nM, number only, no unit symbol.

Sample O=C(Cc1ccc(OCCCC2CCN(c3ncc(Cl)cn3)CC2)cc1F)N1CC(CNC[C@H](O)[C@@H](O)[C@H](O)[C@H](O)CO)C1 ; concentration at 8 h observed: 369

* * *

- tgt: human GPR119 (hGPR119) (Homo sapiens, UniProt Q8TDV5)
- protocol.text: cAMP accumulation assay (cAMP Gs dynamic HTRF kit)
- measurement.context: CHO-K1 cells stably expressing hGPR119; cAMP accumulation; 4-parameter fit
pEC50: −log10 of the molar value.
Below is a list of entries, each paired with its recorded pEC50 value.

Entry COC(=O)c1cnc(N2CCC(CCCOc3ccc(CC(=O)N4CC(CNC[C@H](O)[C@@H](O)[C@H](O)[C@H](O)CO)C4)c(F)c3)CC2)nc1 — recorded pEC50 = 6.00 to 7.00

Value of pEC50 reported for the compound O=C(Cc1c(F)cc(OCCCC2CCN(C(=O)OC3(C(F)(F)F)COC3)CC2)cc1F)N1CC(CNC[C@H](O)[C@@H](O)[C@H](O)[C@H](O)CO)C1 is 6.00 to 7.00

Briefly, pEC50 measured for CCOc1cnc(N2CCC(CCCOc3ccc(CC(=O)N4CC[C@@H](CNC(CO)(CO)CO)C4)c(F)c3)CC2)nc1 : ≥ 7.00

Memo: O=C(Cc1ccc(OCCCC2CCN(c3ncc(Cl)cn3)CC2)cc1F)N1CCC(O)(CNCC(CO)(CO)CO)CC1 , reported pEC50: ≥ 7.00

Sample O=C(NCCCS(=O)(=O)O)C1CN(C(=O)Cc2ccc(OCCCC3CCN(c4ncc(Cl)cn4)CC3)cc2F)C1 ; pEC50 observed: ≥ 7.00

Proceed to the following item.
For O=C(Cc1c(F)cc(OCCCC2CCN(c3ncc(Cl)cn3)CC2)cc1F)N1CC[C@@H](CNCC(O)(CO)CO)C1 the compound record lists pEC50 as ≥ 7.00

* * *

Form field: EC50 (one value per entry).
- tgt: human GPR119 (hGPR119) (Homo sapiens)
- protocol.text: cAMP accumulation assay (cAMP Gs dynamic HTRF kit)
- measurement.context: CHO-K1 cells stably expressing hGPR119; cAMP accumulation; 4-parameter fit
- Procedure: CHO-K1 cells stably expressing human GPR119 (hGPR119) were prepared by transfection of a GPR119-carrying plasmid using Lipofectamine 2000 (following manufacturer instructions). […] Assay-ready frozen (ARF) cells were prepared and used throughout the study. […] RT-FRET was measured using a ClarioSTAR plate reader, calculating the ratio between emissions at 665 nm and 620 nm (HTRF ratio). […] EC50 and Max activity values were determined using a standard 4-parameter fit.

Documented EC50 of O=C(Cc1ccc(OCCCC2CCN(c3ncc(Cl)cn3)CC2)cc1F)N1CC(CN2C[C@H](O)[C@@H](O)C2)C1 (stereo in doubt) : ≤ 100 nM

Summary for this molecule, O=C(Cc1ccc(OCCCC2CCN(c3ncc(Cl)cn3)CC2)cc1F)NCCCCC(=O)NC(CO)(CO)CO : EC50 is 100 to 1000 nM

Query CC(C)OC(=O)N1CCC(CCCOc2ccc(CC(=O)N3CC(CNC[C@H](O)[C@@H](O)[C@H](O)[C@H](O)CO)C3)c(F)c2)CC1 yields EC50 of 100 to 1000 nM

Entry O=C(Cc1ccc(COCC2CC23CCN(c2ncc(Cl)cn2)CC3)cc1F)N1CC(CNC[C@H](O)[C@@H](O)[C@H](O)[C@H](O)CO)C1 (stereo partly shown) , EC50 reported as 1000 to 10000 nM

EC50 reported for this molecule O=C(Cc1ccc(OCCCC2CCN(C(=O)OC3(C(F)(F)F)COC3)CC2)cc1F)N1CC(CNC[C@H](O)[C@@H](O)[C@H](O)[C@H](O)CO)C1 : 100 to 1000 nM

EC50 for O=C(Cc1ccc(OCCCC2CCN(c3ncc(Cl)cn3)CC2)cc1F)N1CC(CNC(CO)(CO)CO)C1 is ≤ 100 nM

* * *

- tgt: human GPR119 (hGPR119) (Homo sapiens, UniProt Q8TDV5)
- Sequence (Q8TDV5 1-335): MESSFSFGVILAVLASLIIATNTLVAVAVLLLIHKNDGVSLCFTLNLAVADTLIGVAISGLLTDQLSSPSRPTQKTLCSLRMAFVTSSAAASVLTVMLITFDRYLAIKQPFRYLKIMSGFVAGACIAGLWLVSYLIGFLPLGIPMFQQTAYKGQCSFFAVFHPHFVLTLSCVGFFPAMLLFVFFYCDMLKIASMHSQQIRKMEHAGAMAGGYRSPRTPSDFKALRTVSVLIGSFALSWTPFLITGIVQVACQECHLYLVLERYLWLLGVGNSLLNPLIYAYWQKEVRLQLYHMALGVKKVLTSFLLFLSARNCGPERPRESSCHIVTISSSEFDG
- protocol.text: cAMP accumulation assay (cAMP Gs dynamic HTRF kit)
- measurement.context: CHO-K1 cells stably expressing hGPR119; cAMP accumulation; 4-parameter fit
pEC50: −log10 of the molar value.
measurement.label: pEC50

Below, 5 compounds whose answers are already recorded.
Looking up CCCc1cnc(N2CCC(CCCOc3ccc(CC(=O)N4CC(CNC(CO)(CO)CO)C4)c(F)c3)CC2)nc1 , I found its pEC50 recorded as ≥ 7.00

O=C(NC(CO)(CO)CO)[C@@H]1CCN(C(=O)Cc2ccc(OCCCC3CCN(c4ncc(Cl)cn4)CC3)cc2F)C1 has a reported pEC50 of ≥ 7.00

So for O=C(Cc1ccc(OCCCC2CCN(c3ncc(Cl)cn3)CC2)cc1F)NC(CO)(CO)CO , the logged pEC50 turned out to be 6.00 to 7.00

The compound listed as O=C(Cc1ccc(OCCCC2CCN(c3ncc(Cl)cn3)CC2)cc1F)N1CCC(O)(C(=O)NCC(CO)(CO)CO)C1 (stereo not shown) shows pEC50 equal to ≥ 7.00

CCCc1cnc(N2CCC(CCCOc3ccc(CC(=O)N4CC(CNCC(CO)CO)C4)c(F)c3)CC2)nc1 has a reported pEC50 of ≥ 7.00

Below: the item to evaluate.
Per the records, this compound ( O=C(NC[C@H](O)[C@@H](O)[C@H](O)[C@H](O)CO)C1CN(C(=O)Cc2ccc(OCCCC3CCN(c4ncc(Cl)cn4)CC3)cc2F)C1 (racemic) ) has pEC50 equal to 6.00 to 7.00

* * *

- tgt: human GPR119 (hGPR119) (Homo sapiens)
- Construct: expressed in transfected cells
- protocol.text: cAMP accumulation assay (cAMP Gs dynamic HTRF kit)
- Type: cell-based
- measurement.context: 1 h; CHO-K1 cells stably expressing hGPR119; % activity normalized to Max/Min controls; 4-parameter fit
# reported Emax; entries follow

Sample records with Emax:
Field Emax (entry O=C(CC1CN(C(=O)Cc2ccc(OCCCC3CCN(c4ncc(Cl)cn4)CC3)cc2F)C1)NCCCS(=O)(=O)O ) reads 100 to 130%

Recorded result, O=C(Cc1ccc(OCCCC2CCN(c3ncc(Cl)cn3)CC2)cc1F)NCCC(=O)NC(CO)(CO)CO , Emax: ≥ 130%

Note to self: Emax recorded for COCc1cnc(N2CCC(CCCOc3ccc(CC(=O)N4CC(CNCCNC(=O)NC(CO)(CO)CO)C4)c(F)c3)CC2)nc1 was 100 to 130%

Memo: COCC1(CNC[C@H](O)[C@@H](O)[C@H](O)[C@H](O)CO)CCN(C(=O)Cc2ccc(OCCCC3CCN(c4ncc(Cl)cn4)CC3)cc2F)C1 (stereo partly shown) , reported Emax: 100 to 130%

Record O=C(Cc1ncc(OCCCC2CCN(c3ncc(Cl)cn3)CC2)cc1F)N1CC(CNC[C@H](O)[C@@H](O)[C@H](O)[C@H](O)CO)C1 . Reported Emax: 100 to 130%

New cases:
# Emax (molecule: CC(C)OC(=O)N1CCC2(CCC2CCOc2cc(F)c(CC(=O)N3CC(CNC[C@H](O)[C@@H](O)[C@H](O)[C@H](O)CO)C3)c(F)c2)CC1 (stereo partly shown) ) is 50 to 100%

Per the record, O=C(Cc1ccc(OCCCCC2CC3(CCN(c4ncc(Cl)cn4)CC3)C2)cc1F)N1CC(CNC[C@H](O)[C@@H](O)[C@H](O)[C@H](O)CO)C1 has Emax of 100 to 130%

// Emax value for CCCc1cnc(N2CCC(CCCOc3cc(F)c(CC(=O)N4CC(CNCCNC(=O)NC(CO)(CO)CO)C4)c(F)c3)CC2)nc1 : ≥ 130%

Quick note, Emax for CCCc1cnc(N2CCC(CCCOc3ccc(CC(=O)N4CC(CNCC(CO)CO)C4)c(F)c3)CC2)nc1 landed at 100 to 130%

For reference, reported Emax for O=C(Cc1ccc(OCCCCC2CCN(c3ncc(Cl)cn3)CC2)cc1F)N1CC(CNC[C@H](O)[C@@H](O)[C@H](O)[C@H](O)CO)C1 stands at ≥ 130%
